system: rat DGAT2 mRNA; experiment: Dose-dependent inhibition of DGAT2 in A10 cells (Tables 82, 83); assay type: cell-based; conditions: 0.62 nM (Table 83)
Strand notation (5' to 3'): a small letter for the sugar, then the base; units joined by * are phosphorothioate-linked, units joined directly phosphodiester-linked; [ ] holds rarer units or linkages, { } end groups; capitals alone tell only the bases. e = 2'-O-(2-methoxyethyl) (MOE); [5mC] = 5-methylcytosine; d = 2'-deoxy (DNA)
PROPERTY_NAME: percent inhibition of rat DGAT2 (%)

>>> df
                                  substance  target_of_assay                    property_name  val
0  372602 (antisense e[5mC]*e[5mC]*dA*dG*dG*d[5mC]*dA*dT*dG*dG*dA*dG*e[5mC]*eT) [compound 372602]   rat DGAT2 mRNA  percent inhibition of rat DGAT2    0
1  372516 (antisense eT*eA*e[5mC]*dA*dG*dA*dA*dG*dG*d[5mC]*dA*d[5mC]*d[5mC]*e[5mC]*eA*eG) [compound 372516]   rat DGAT2 mRNA  percent inhibition of rat DGAT2    1
2  372546 (antisense eT*eT*eG*dG*dT*d[5mC]*dT*dT*dG*dT*dG*dA*dT*eT*eG*eT) [compound 372546]   rat DGAT2 mRNA  percent inhibition of rat DGAT2    0
3  372618 (antisense eG*eT*dG*dG*dT*dA*d[5mC]*dA*dG*dG*dT*d[5mC]*eG*eA) [compound 372618]   rat DGAT2 mRNA  percent inhibition of rat DGAT2    0
4  372503 (antisense eG*e[5mC]*eA*dG*dG*dT*dT*dG*dT*dG*dT*dG*dT*e[5mC]*eT*eT) [compound 372503]   rat DGAT2 mRNA  percent inhibition of rat DGAT2    7
5  372530 (antisense eT*e[5mC]*eG*dG*d[5mC]*d[5mC]*d[5mC]*d[5mC]*dA*dG*dG*dA*dG*e[5mC]*e[5mC]*e[5mC]) [compound 372530]   rat DGAT2 mRNA  percent inhibition of rat DGAT2    0
